- Tested on: T cell lines against natural epitope SSX-241-49
- run.description: Cross-reactivity and functional avidity: IFN-gamma production by T cell lines raised against natural SSX-2 41-49;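 further: analogs presented ex vivo by competent APCs to T cells specific for the non-mutated epitope, scored by lowest activating concentration, peak cytokine effect and concentration at that peak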
- Assay type: cell-based, HHD transgenic mice
- condition.set: T cells raised to native peptide tested on analogs; footnote * and unit not given
Square brackets hold non-standard residues; d marks the D form. Peptide text beside a SMILES is read from it. Nva = CCC[C@H](N)C(=O)O
readout: Cross-reactivity and fct avidity (native to analogs)*
Please reply with the value in numeric form only.

[[record]]
molecule = "CCC[C@H](NC(=O)[C@H](CO)NC(=O)[C@@H](NC(=O)[C@@H](N)Cc1ccccc1)C(C)C)C(=O)N[C@@H](CCCCN)C(=O)N[C@H](C(=O)N[C@@H](Cc1ccccc1)C(=O)N[C@@H](Cc1ccc(O)cc1)C(=O)N[C@H](C(=O)O)C(C)C)[C@@H](C)CC [SSX2 41-49 (K41F, A42V, E44Nva), FVS(Nva)KIFYV] (H-FVS[Nva]KIFYV-OH)"
measured_number = 3


Give recorded Cross-reactivity and fct avidity (native to analogs)*. CCC[C@H](NC(=O)[C@H](CCCCN)NC(=O)[C@H](CCC(=O)O)NC(=O)[C@H](CO)NC(=O)[C@@H](NC(=O)[C@@H](N)Cc1ccccc1)C(C)C)C(=O)N[C@@H](Cc1ccccc1)C(=O)N[C@@H](Cc1ccc(O)cc1)C(=O)N[C@H](C(=O)O)C(C)C [SSX2 41-49 (K41F, A42V, I46Nva), FVSEK(Nva)FYV] (H-FVSEK[Nva]FYV-OH)
1
